Ref: paper PMC9928118

Tested on: GST-tagged Cn
Assay info: PEPperPRINT peptide microarray binding assay with GST-tagged Cn
Condition context: max over the chip locations listed for the peptide (two spots)
Excerpt: We then estimated in-silico the binding strength of the various peptides to Cn by template-based docking followed by flexible backbone refinement using Modeller and PepCrawler (Figs 4 and S4). […] Fig 4 Medium-throughput filtering by structural modeling and microarray screening. […] (f) Scatter plot of the sequence likelihood (normalized by length, higher is better) against fluorescence level (higher is better, see Methods for details of the data analysis). […]
Assay metric: Chip Fluorescence (max)

sequence_string="ADEAPPRITITPYELP [SeqRBMlowT_5415]" study_target="GST-tagged Cn" meas_value=3.784
sequence_string="GHSHNPSITITFAEAE [SeqRBM_9189]" study_target="GST-tagged Cn" meas_value=4.764
sequence_string="ADEAGVQIVITVTELP [SeqRBMlowT_1446]" study_target="GST-tagged Cn" meas_value=3.577
sequence_string="TFWTNPQFRIKLEEVD [SeqRBMlowT_2987]" study_target="GST-tagged Cn" meas_value=3.672
sequence_string="RAYINPFMTFIDGGHR [SeqRBMlowT_1519]" study_target="GST-tagged Cn" meas_value=3.708
sequence_string="TFHTNPQYRIKLEEPD [SeqRBMlowT_4495]" study_target="GST-tagged Cn" meas_value=3.4958
sequence_string="RQPGQALLELKGHAGA [SeqYPL247C_Erysiphe_pulchra]" study_target="GST-tagged Cn" meas_value=4.952
sequence_string="KSSSSPSASINVPQSN [SeqRBM_1871]" study_target="GST-tagged Cn" meas_value=3.993
sequence_string="RAYINPFMQFIDGGRK [SeqRBMlowT_4070]" study_target="GST-tagged Cn" meas_value=3.668
sequence_string="SFVHLPDFKVESLVRR [Seqshuffled_9544]" study_target="GST-tagged Cn" meas_value=4.191
sequence_string="ADEANPRITITPAELP [SeqRBMlowT_3131]" study_target="GST-tagged Cn" meas_value=16.2722
sequence_string="RCISAYKLDSVMMDPS [Seqrandom_9957]" study_target="GST-tagged Cn" meas_value=3.463

====

System: GST-tagged Cn
Assay info: PEPperPRINT peptide microarray binding assay with GST-tagged Cn
Condition context: GST-tagged Cn, mean over the spots named in Location on chip
Assay metric: Chip Fluorescence (mean)

sequence_string="PGLYDNALGIESFTLS [SeqRBMlowT_2801]" meas_value=0.04021
sequence_string="REYINPKMHFHFLNTV [SeqRBM_9087]" meas_value=-0.3424
sequence_string="TFWTNPQFKVKLEDVD [SeqRBMlowT_6885]" meas_value=-0.7469
sequence_string="SKMAIAIYQMASCLLH [Seqshuffled_9384]" meas_value=0.8527
sequence_string="HVSSSVDIVITPTQHR [SeqRBMlowT_8839]" meas_value=0.2946
sequence_string="HVSSSPRIAITPTQHR [SeqRBMlowT_8885]" meas_value=-0.634
sequence_string="GDYMQGTLQAETGEHD [Seqshuffled_9624]" meas_value=0.7951
sequence_string="PSDDQPGIVVHPCEED [SeqRBMlowT_365]" meas_value=0.4598
sequence_string="TFWTNPQYRVTVTDPD [SeqRBMlowT_615]" meas_value=0.4883
sequence_string="APSSWPSIVVSPPELN [SeqRBM_1086]" meas_value=-0.3843
sequence_string="RTPGTFPLTLKGHKKQ [SeqRBMlowT_6382]" meas_value=0.4598
sequence_string="TFHTNPQYRVNIEDQD [SeqRBM_8967]" meas_value=0.08694
sequence_string="TFWTNPQYTITLEEPD [SeqRBMlowT_2235]" meas_value=0.2149

====

Tested on: GST-tagged Cn
Assay info: PEPperPRINT peptide microarray binding assay with GST-tagged Cn
Condition context: mean over the chip locations listed for the peptide (two spots)
Assay metric: Chip Fluorescence (mean)

sequence_string="LTWTSLRYSVNDDKNT [Seqshuffled_9363]" study_target="GST-tagged Cn" meas_value=4.411
sequence_string="SDSANPEITITPAELP [SeqRBMlowT_1995]" study_target="GST-tagged Cn" meas_value=2.123
sequence_string="LDEAIPEIVISPPETP [SeqRBMlowT_4410]" study_target="GST-tagged Cn" meas_value=1.035
sequence_string="PSEDQPGIVVHVCEEG [SeqRBMlowT_361]" study_target="GST-tagged Cn" meas_value=0.9779
sequence_string="RNPGQPLLELEGHSAP [SeqRBMlowT_7742]" study_target="GST-tagged Cn" meas_value=0.4912
sequence_string="ASEAAPTINIDFAPNP [SeqRBMlowT_1832]" study_target="GST-tagged Cn" meas_value=-0.1882
sequence_string="RLFSVCEQEEEIERAP [Seqshuffled_9643]" study_target="GST-tagged Cn" meas_value=1.1677
sequence_string="DSLEGATIVITLTEGK [SeqRBM_8933]" study_target="GST-tagged Cn" meas_value=0.5914
sequence_string="ADEAGVQIVITVTELP [SeqRBMlowT_1446]" study_target="GST-tagged Cn" meas_value=1.112
sequence_string="KSSSSPSASINVPQSN [SeqRBM_1871]" study_target="GST-tagged Cn" meas_value=1.569
sequence_string="GAWGLNKSGLFLINEV [Seqshuffled_9399]" study_target="GST-tagged Cn" meas_value=0.4206
sequence_string="GTETTPSVVVHVCEDD [SeqRBMlowT_112]" study_target="GST-tagged Cn" meas_value=1.52

====

Recorded Chip Fluorescence (max) values for a group of sequences are listed next.
System: GST-tagged Cn
Assay info: PEPperPRINT peptide microarray binding assay with GST-tagged Cn
Condition context: max over the duplicate spots (Location on chip)
Assay metric: Chip Fluorescence (max)

sequence_string="TFWANPQITITLAELD [SeqRBMlowT_7358]" study_target="GST-tagged Cn" assay_metric="Chip Fluorescence (max)" meas_value=2.261
sequence_string="HPYMGPKIQFHSGGRK [SeqRBM_457]" study_target="GST-tagged Cn" assay_metric="Chip Fluorescence (max)" meas_value=2.294
sequence_string="ESRYRRFRQFQAPKVD [Seqshuffled_9523]" study_target="GST-tagged Cn" assay_metric="Chip Fluorescence (max)" meas_value=2.434
sequence_string="RAYINPFMQFTFDSNK [SeqRBMlowT_4738]" study_target="GST-tagged Cn" assay_metric="Chip Fluorescence (max)" meas_value=2.119
sequence_string="ADEATPSIVVHVCELP [SeqRBMlowT_118]" study_target="GST-tagged Cn" assay_metric="Chip Fluorescence (max)" meas_value=2.544
sequence_string="YCQWSNRATQIGHKPT [Seqrandom_9979]" study_target="GST-tagged Cn" assay_metric="Chip Fluorescence (max)" meas_value=2.027
sequence_string="RNPGTFLLTLRGHKKQ [SeqRBMlowT_5813]" study_target="GST-tagged Cn" assay_metric="Chip Fluorescence (max)" meas_value=2.447
sequence_string="TFWTNPQFVVSLPEED [SeqRBMlowT_8537]" study_target="GST-tagged Cn" assay_metric="Chip Fluorescence (max)" meas_value=2.16
sequence_string="PSIYQEVLGIGNFSLS [SeqRBMlowT_4899]" study_target="GST-tagged Cn" assay_metric="Chip Fluorescence (max)" meas_value=2.16
sequence_string="RFYINPFVQFSDGGNN [SeqRBM_1053]" study_target="GST-tagged Cn" assay_metric="Chip Fluorescence (max)" meas_value=2.558
sequence_string="HIIIVWAVSEVKYVQL [Seqrandom_9992]" study_target="GST-tagged Cn" assay_metric="Chip Fluorescence (max)" meas_value=1.914
sequence_string="TFWSNPQFRLKLEDPD [SeqRBMlowT_6883]" study_target="GST-tagged Cn" assay_metric="Chip Fluorescence (max)" meas_value=2.274
sequence_string="RNPESPVLELEGHSAS [SeqRBMlowT_6180]" study_target="GST-tagged Cn" assay_metric="Chip Fluorescence (max)" meas_value=1.97
sequence_string="RAYDNPVFSFTFDSKG [SeqRBM_7566]" study_target="GST-tagged Cn" assay_metric="Chip Fluorescence (max)" meas_value=2.445
sequence_string="KNARGPLIIIHPMEED [SeqRBM_1913]" study_target="GST-tagged Cn" assay_metric="Chip Fluorescence (max)" meas_value=2.283
sequence_string="STASLPSFNFSFLTSS [SeqNUP153_Antrostomus_carolinensis]" study_target="GST-tagged Cn" assay_metric="Chip Fluorescence (max)" meas_value=2.477
sequence_string="RTYINPFMLFEDMGSR [SeqRBM_7588]" study_target="GST-tagged Cn" assay_metric="Chip Fluorescence (max)" meas_value=2.523
sequence_string="RSKFIPKLSLQSPVHH [SeqRBMlowT_1791]" study_target="GST-tagged Cn" assay_metric="Chip Fluorescence (max)" meas_value=2.2877
sequence_string="TFNNNPQATVRRTDID [SeqRBM_1961]" study_target="GST-tagged Cn" assay_metric="Chip Fluorescence (max)" meas_value=1.877
sequence_string="TFWTNPQITVTLAEDD [SeqRBMlowT_3250]" study_target="GST-tagged Cn" assay_metric="Chip Fluorescence (max)" meas_value=2.572
sequence_string="RMYINPFVQFIDGGNR [SeqSFB3_Mycena_chlorophos]" study_target="GST-tagged Cn" assay_metric="Chip Fluorescence (max)" meas_value=2.0812
sequence_string="TFWSNPQYRITLEDPD [SeqRBMlowT_78]" study_target="GST-tagged Cn" assay_metric="Chip Fluorescence (max)" meas_value=2.0958
sequence_string="RNPGSPVLVLEGHSAA [SeqYPL247C_Zygosaccharomyces_parabailii]" study_target="GST-tagged Cn" assay_metric="Chip Fluorescence (max)" meas_value=2.128
sequence_string="HSKLIPKLSIQSPVEH [SeqRBMlowT_3447]" study_target="GST-tagged Cn" assay_metric="Chip Fluorescence (max)" meas_value=2.177
sequence_string="QWSLGVGIVITVTETM [SeqRBM_1755]" study_target="GST-tagged Cn" assay_metric="Chip Fluorescence (max)" meas_value=2.2853
sequence_string="KSKRIPKLSVVSPVHH [SeqRBM_6422]" study_target="GST-tagged Cn" assay_metric="Chip Fluorescence (max)" meas_value=2.115
sequence_string="PNGSNPETVIKPDWTE [SeqRBM_275]" study_target="GST-tagged Cn" assay_metric="Chip Fluorescence (max)" meas_value=1.983
sequence_string="FQTDAPTIPIDQAPIC [SeqRBM_9788]" study_target="GST-tagged Cn" assay_metric="Chip Fluorescence (max)" meas_value=1.993
sequence_string="GAYMCPFMSWQDCGQR [SeqRBMlowT_4796]" study_target="GST-tagged Cn" assay_metric="Chip Fluorescence (max)" meas_value=2.042
sequence_string="RQPGQALLELRGHSAS [SeqRBMlowT_7735]" study_target="GST-tagged Cn" assay_metric="Chip Fluorescence (max)" meas_value=2.013
sequence_string="KKMSPPCITITPAPGA [SeqRBMlowT_7625]" study_target="GST-tagged Cn" assay_metric="Chip Fluorescence (max)" meas_value=2.125
sequence_string="VEALSSRYGMATNLTG [Seqshuffled_4257]" study_target="GST-tagged Cn" assay_metric="Chip Fluorescence (max)" meas_value=2.043
sequence_string="TFWTNPQYRITLEDPD [SeqRBMlowT_604]" study_target="GST-tagged Cn" assay_metric="Chip Fluorescence (max)" meas_value=2.534
sequence_string="TFFINPQFKASLTEMD [SeqRBM_564]" study_target="GST-tagged Cn" assay_metric="Chip Fluorescence (max)" meas_value=2.053
sequence_string="LSLYVNALGMESFTIS [SeqRBM_9141]" study_target="GST-tagged Cn" assay_metric="Chip Fluorescence (max)" meas_value=2.172
sequence_string="YTQIFPKCAMTIIKRK [Seqrandom_9966]" study_target="GST-tagged Cn" assay_metric="Chip Fluorescence (max)" meas_value=2.341
sequence_string="PSHSIPKHSWESAVEH [SeqRBM_3394]" study_target="GST-tagged Cn" assay_metric="Chip Fluorescence (max)" meas_value=2.053
sequence_string="ASSANPEITVTPAELP [SeqRBMlowT_4424]" study_target="GST-tagged Cn" assay_metric="Chip Fluorescence (max)" meas_value=2.528
sequence_string="TFWTNPQYVITLPEED [SeqRBMlowT_4660]" study_target="GST-tagged Cn" assay_metric="Chip Fluorescence (max)" meas_value=1.913
sequence_string="GNKEFSPLNVEGLSGN [Seqshuffled_9463]" study_target="GST-tagged Cn" assay_metric="Chip Fluorescence (max)" meas_value=2.018
sequence_string="RAYKNPFMQFDLDSSL [SeqRBM_8076]" study_target="GST-tagged Cn" assay_metric="Chip Fluorescence (max)" meas_value=2.512
sequence_string="TFWTNPQFRIKLEDED [SeqRBMlowT_645]" study_target="GST-tagged Cn" assay_metric="Chip Fluorescence (max)" meas_value=2.265
sequence_string="PSLYENALGMESFTIS [SeqRBMlowT_2807]" study_target="GST-tagged Cn" assay_metric="Chip Fluorescence (max)" meas_value=2.474
sequence_string="WPWCRHPKKRNWLNWH [Seqrandom_9939]" study_target="GST-tagged Cn" assay_metric="Chip Fluorescence (max)" meas_value=2.4643
sequence_string="STPLPQGAPISPNTLA [Seqshuffled_9522]" study_target="GST-tagged Cn" assay_metric="Chip Fluorescence (max)" meas_value=2.383
sequence_string="GSLLIPHCDMSAGGSY [SeqRBM_2528]" study_target="GST-tagged Cn" assay_metric="Chip Fluorescence (max)" meas_value=2.002
sequence_string="TFWTNPQFRVHLEDED [SeqRBMlowT_4265]" study_target="GST-tagged Cn" assay_metric="Chip Fluorescence (max)" meas_value=1.93
sequence_string="TFWTNPQFRITLEEPD [SeqRBMlowT_11]" study_target="GST-tagged Cn" assay_metric="Chip Fluorescence (max)" meas_value=2.387
sequence_string="EPYVAFFYQFSHDPKS [Seqshuffled_9939]" study_target="GST-tagged Cn" assay_metric="Chip Fluorescence (max)" meas_value=2.266
sequence_string="HCRFEWPFGFSMIRYP [Seqrandom_9994]" study_target="GST-tagged Cn" assay_metric="Chip Fluorescence (max)" meas_value=2.458
sequence_string="KKMAPPAINIDPAPTN [SeqRBMlowT_321]" study_target="GST-tagged Cn" assay_metric="Chip Fluorescence (max)" meas_value=2.529
sequence_string="SSSAAPEIVVSKPEHN [SeqRBMlowT_9785]" study_target="GST-tagged Cn" assay_metric="Chip Fluorescence (max)" meas_value=2.217
